Data provenance is PubChem BioAssay (NCI).

- System: LOX IMVI melanoma
- measurement-notes: NCI tumour cell line growth inhibition, 48 h; in the data active = GI50 below about 0.43 µM; inactive = the rest
Mark one answer only. Choices: yes (1) for active, no (0) for inactive

Per the assay record, what outcome was assigned to O=C(O)CN(CCN(CC(=O)O)CC(=O)O)CC(=O)O.[Cu+2].[Na+] ?
no (0)

# fetch the recorded call for O=C(NCCN1CCOCC1)c1cc2c(Oc3ccc(NC(=O)C4(C(=O)Nc5ccc(F)cc5)CC4)cc3)ccnc2[nH]1 here
no (0)

Recorded call for O=C1c2ccccc2-c2cn(Cc3ccccc3)c3cccc(c23)C1c1cccnc1 (stereo not given) ?
no (0)

Query: recorded result category for COc1cccc(/C=C\C(=O)c2ccccc2)c1 in this test
no (0)

Give the logged outcome of this assay for the following molecule: Cc1ccc2nc(CN(CCN(Cc3nc4ccc(C)cc4[nH]3)Cc3nc4ccc(C)cc4[nH]3)Cc3nc4ccc(C)cc4[nH]3)[nH]c2c1
no (0)

So what was the verdict on COc1cc(C(=O)/C=C/c2c[nH]c3ccccc23)cc(OC)c1OC in this test?
yes (1)

Per the records of this test, what outcome belongs to CC[C@H](C)[C@H](NC(=O)CN(C)C)C(=O)N(C)[C@H](C[C@@H](OC(C)=O)c1nc(C(=O)NC23C4C5C2C2C3C4C52C(=O)OC)cs1)C(C)C (stereo not given in full) ?
yes (1)

// param item: c1c2c(cc3c1OCO3)-c1ncc3cc4c(cc3c1C2)OCO4 ; yields the recorded call
yes (1)

In this assay, the call recorded for CN1CCN(Cc2ccc(NC(=O)c3cncc(C#Cc4c(N)ncc5ccccc45)c3)cc2C(F)(F)F)CC1 was what?
yes (1)

I'd appreciate the recorded outcome for COc1ccc(/C(=C(\c2ccccc2)[N+](=O)[O-])c2ccc(OCCN3CCCC3)cc2)cc1 from this test.
no (0)

Query: recorded result category for COc1ccc([C@@H]2[C@@H](Cl)C(=O)N2c2cc(OC)c(OC)c(OC)c2)cc1C in this test
yes (1)

Please share the test call associated with CCOC(=O)c1c(CN2CCCCC2)nc2ccc(Cl)cc2c1-c1ccccc1 .
no (0)

What is the recorded call for this molecule in the test? Oc1ccccc1/C=N\NC(=S)Nc1ccc(F)cc1
no (0)

Hi, do you know how Cc1cnc(C(=O)Nc2nc3ccc(S(=O)(=O)Nc4ccc(C(C)(C)C)cc4)cc3[nH]2)cn1 came out in this test?
no (0)

What is the recorded call for this molecule in the test? N#Cc1ccc2c(-c3ccnc(NC4CC4)n3)c(-c3ccc(F)cc3)nn2c1
no (0)

====

- Test system: OVCAR-5 ovarian
- measurement-notes: NCI tumour cell line growth inhibition, 48 h; in the data active = GI50 below about 0.43 µM; inactive = the rest
Answer with one of the outcomes given here: 1 (active), 0 (inactive)

line_notation=COc1ccc(/C=C\c2cc(OC)c(OC)c(OC)c2)cc1NC(=O)/C=C/c1cc(OC)c(OC)c(OC)c1 category_label=0
line_notation=COc1cc(/C=N\Nc2ccccc2)ccc1OC(=O)c1ccccc1 category_label=0
line_notation=C=CC[PH+](c1ccccc1)c1ccccc1.C=CC[PH+](c1ccccc1)c1ccccc1.[Pt+2].[S-]c1nc2ccccc2[nH]1.[S-]c1nc2ccccc2[nH]1 category_label=0
line_notation=C=C(CN1CCN(c2cc(C(F)(F)F)cc(C(F)(F)F)c2)CC1)c1ccc(C(=O)Nc2ccccc2N)cc1 category_label=0
line_notation=Nc1nc(SCC#CCCl)c2[nH]cnc2n1 category_label=0

Status in this test for O=C(/C=C/c1ccco1)Nc1ncc(Cc2cc(Cl)ccc2Cl)s1 ?
1

What call does the record list for O=C(O)CCCCCNCc1cc2cc3c(cc2c2cc(OCc4ccccc4)ccc12)OCO3 ?
0

What did this assay record as the result for O=C(NCCN1CCOCC1)c1cc2c(Oc3ccc(NC(=O)C4(C(=O)Nc5ccc(F)cc5)CC4)cc3)ccnc2[nH]1 ?
0
